Reference source for all entries: patent US20130259876A1

# pKd per record follows
Target: T1, scHLA-B27-mmH (engineered HLA-B*27 ectodomain in-line fusion protein) (human (HLA-B*2705, beta-2 …))
T1 construct: also called soluble HLA-B*27 fusion protein
Assay: SPR (Biacore), mAb captured, 25 C, HBST pH 7.4
Please report pKd as the negative decimal logarithm of the molar concentration, giving only the number.

Task: Given the binder H4H2538P (antibody, V domains shown) VH: QVQLVQSGAEVKKPGASVKVSCKASGYTFTDYYMHWVRQAPGQGLEWIGWINPNSGGSNFAQKFQGRVTMTRDTSISTAYMELSRLRSDDTAVYYCARKAGYTSSWFDYWGQGTLVTVSS VL: DIVMTQSPDSLAVSLGERATINCKSSQSVLYSFNNKNYLSWYQQKPGQPPKLLIYWASTRESGVPDRFSGSGSGTDFTLTISSLQAEDAAVYYCQQYYSMITFGQGTRLEIK , what is its reported pKd?
Result: 9.22

Task: What does the data say about its pKd? Entry: H4H2524P (antibody, V domains shown) VH: QVQLQESGPGLVKPSQTLSLTCTVSGGSISSDGYYWSWIRQHPGKGLEWIGYIYYSGNTYYNPSLKSRVTISVDTSKNHFSLKLSSVTAADTAVYYCTRDPRGITGTHYFDYWGQGTLVTVSS VL: EIVLTQSPGTLSLSPGERATLSCRTSQSVSSSYLAWYQQKPGQAPRLLIYGASSRATGIPDRFSGSGSGTDFTLTISRLEPEDFAVYYCQQFGTSLFTFGPGTKVDIK
Result: 7.62

Task: Which measured pKd value corresponds to H4H2542P (antibody, V domains shown) VH: EVQLVESGGGLVQPGRSLRLSCAASGFTFDDYAMHWVRQGPGKGLEWVSGISWNGRTMDHADSVKGRFTISRDNAKNSLYLQMNSLRNDDTGVYFCAKEGIPVAGTYFHFYGMDVWGQGTTVTVSS VL: EIVMTQSPATLSVSPGERVTLSCRASQSIGNYLAWYQQKPGQAPRLLIYGTSTRATGIPARFSGSGSGTEFTLTFSSLQSEDFAVYYCQQYNHWPLTFGGGTKVEIK ?
Result: 7.24
